system: 945468-187-T-J2-PDC spheroids viability; test: Anticancer human tumor 945468-187-T-J2-PDC patient-derived rectal carcinoma cell line growth inhibition [PI3K]; settings: second compound 0.1 µM; first compound 0.01 µM; hits give low values; spheroids with HUVEC and MSC;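 note: spheroids exposed to compounds for seven days before reading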
Quantity kind: viability, T/C (%)
Your answer is read as %, so omit the unit and give the number.

Cn1ncnc1[C@H]1c2n[nH]c(=O)c3cc(F)cc(c23)N[C@@H]1c1ccc(F)cc1 + CC(Nc1ccc2c(c1)OCCn1cc(N3C(=O)OCC3C(F)F)nc1-2)C(N)=O
89.1
CCN1CCN(Cc2ccc(Nc3ncc(F)c(-c4cc(F)c5nc(C)n(C(C)C)c5c4)n3)nc2)CC1 + CC(Nc1ccc2c(c1)OCCn1cc(N3C(=O)OCC3C(F)F)nc1-2)C(N)=O
91.3
CC(=O)c1c(C)c2cnc(Nc3ccc(N4CCNCC4)cn3)nc2n(C2CCCC2)c1=O + COc1c(OCCCN2CCOCC2)ccc2c3n(c(=NC(=O)c4cnc(N)nc4)nc12)CCN3
80
Cn1ncnc1[C@H]1c2n[nH]c(=O)c3cc(F)cc(c23)N[C@@H]1c1ccc(F)cc1 + COc1c(OCCCN2CCOCC2)ccc2c3n(c(=NC(=O)c4cnc(N)nc4)nc12)CCN3
81.3

Now consider the entry below.
## Input Query the reported viability, T/C for 945468-187-T-J2-PDC spheroids viability; item: Cn1ncnc1[C@H]1c2n[nH]c(=O)c3cc(F)cc(c23)N[C@@H]1c1ccc(F)cc1 + Cc1nc(NC(=O)N2CCCC2C(N)=O)sc1-c1ccnc(C(C)(C)C(F)(F)F)c1
## Output 91.2
